pKd by entry:
target: Hfq (Escherichia coli, UniProt P0A6X3 1-102)
Sequence (P0A6X3 whole entry): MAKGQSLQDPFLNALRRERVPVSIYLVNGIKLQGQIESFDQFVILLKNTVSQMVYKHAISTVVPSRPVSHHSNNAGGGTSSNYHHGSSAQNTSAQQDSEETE
assay.name: filter binding
API: returns pKd as number; meaning -log10 of concentration in mol/L.

The examples below pair each entry with its known result.
binder | result.number
cspE81-3' (structured_RNA) RNA: GGCCCUUCUGCUGCAAACGUAAUCGCUCUGUAAGAUACGUCAGCAAGAAUUCAAAACCCGCUUAAUCAGCGGGUUUUUUUU | 7.33
malM-3' (structured_RNA) RNA: GCUUUAUCAGCAGUGUAAAAGGCAAGGGGUAAUUACGCCCCACAGUGCUGAUUUUGCAACAACUGGUGCGUCUCCUGGCGCACCUUUUUUU | 7.66
hupB-3'-RtoU (structured_RNA) RNA: GGUAAACUAAGCGUUGUCCCCAGUGGGGAUGUGACGAAGUUCUUUGGCGCAUCUACUGAUGUGCCUUUUUU | 8.72
infA-3'-AtoU (structured_RNA) RNA: GUCGCUGAUUGUUUUACCGCCUGAUGGGCGAAGAGAAAGAACGAGUUUUUGGUCGGUUUAACCGGCCUUUUUAU | 8.92

For the next question, use this binder.
Input: Could you tell me which pKd is on file for cspE-3'-AtoU (structured_RNA) RNA: GUAAGAUACGUCAGCAAGAAUUCUUUUCCCGCUUAAUCAGCGGGUUUUUUUU ?
Output: 8.77
